# ASSAY INFO: yeast display, Sf9 membrane polyspecificity reagent, FACS + sequencing; frameworks hold sequencing errors
MEASURED METRIC: polyreactivity (PSR sort gate)

QVKLVESGGGLVQAGGSLRLSCAASGLIFQNYAMVWYRQAPGKERELVAAISRRGGRTNYADSVKGRFTISRDNAKNNVYLQMKSLKPEDTAVYYCNAKARQSYYYRFDYWGQGTQVTVSS    high polyreactivity
QVQLVESGGGLVQAGGSLRLSCADSGRTFRNYAMGRYRQAPGKERELVATITSSGASTYYADSVKGRFTISRDNAKNTVYLQMNSLKPEDTAVYYCAARPYTGRYFLGYYYWGQGTQVTVSS    high polyreactivity
QVQLVESGGGLVQAGGSLRLSCAASGYIFAWYAMGWYRQAPGIVRELVAAISRSGGSTYYADSVKGRFTISRDNAKHTDYLQMNSLKPEDTAVYYCNAYSAYDEYDYWGQGTQVTVSS    high polyreactivity

----------
# ASSAY INFO: yeast display, Sf9 membrane polyspecificity reagent, FACS + sequencing; frameworks hold sequencing errors
MEASURED METRIC: polyreactivity (PSR sort gate)

Examples from the recorded data:
QVQLVESGAGLVQAGGSLRISCAASGSTFDGNDIGWYRQAPGKERELVAAITIGGGSTYYADSVKGRFTISRDNAKNTVYLQMNSLKPEDTAVYYCAKDDHTGVHTYPGDYWGQGTQVTVSS    low polyreactivity
QVQLVESGGGLVQAGGSLRLSCAASGRTFRYYTMGWYRPAPGKEREFVSSISWNGGSTYYADSVKGRFTISRDNAKNTVYLQIKSLKPEDTAVYYCSADDPYRVYRGPYGYWGQCTQVTVSS    high polyreactivity
QVQLVESGGGLVQAGGSLRLSCAASGFIFDEYAMGWYRQAPGKERELVAAISWSGSRTYYADSVKGRFTISRDNAKNTVYLQMNSLKPQDTAVDYCAKVTAVGAGRRNYWGQGTQVTVSS    low polyreactivity
QVQLVESGGGLVPAGGSLRLSCAASGSTFEVNAMGWYRQAPGKERELVADITSGGSTNYADSVKGRFTISRDNAKNTVFLQMNSLKPEDTAVYFCARDDWFGFIRVQEMDYWGQGTQVTVSS    low polyreactivity
QVQLVESGGGLVQAGGSLRLSCAASGRIFVSYAMGWYRQAPGKERELVAAISNSGSRTYYADSVKGRFTISRDNAKNTVYLQMNSLKPEDTAVYYCAAGQGAGVDYWGQGTQVTVSS    high polyreactivity
QVQLVESGGGLVQAGGSLRLSCAASGGTVKYYAMGWSRQSPGKERELVAAITWSGGSTYYADSVKGRFTISRDNAKNTVYLQMNSLKPEDTAVYYCNAAYSQISFNYWGQGTQVTVSS    high polyreactivity
QVQLVESGGGLFQAGGRLRLSCAATGSIFSVYTMGWYRQAPGKERELVATISFSVGRTYYADSVKGRFTISRDNEKNSVYLQMNSLKPEDTAVYYCNARSCGGYYHWGQGTQVTVSS    high polyreactivity
QVQLVESGGGLVQAGGSLRLICAASGIIFYGYGMGWYRQARGKERELVAAITRSGGRTYYADSVKGRFTISRDNAKNTVYLQMNSLKPEDTAVYYCAAKRRTGGNGYWGQGTQVTVSS    high polyreactivity

Measured polyreactivity (PSR sort gate), `QVQLVESGGGLVQAGGSLRLSCAASGSIFTGNAMGWYRPAPGKERELVAAISSSGGSTYYADSVKGRFTISRDNSKNTVYLQMNSLKPEDTAVYYSAAYNYFLQYDYWGHGTQVTVSS` : low polyreactivity

For this sequence ( `QVQLVESGGGLVQAGGSLRLSCAASGSTFYRYAMGWYRQAPGKERELVAAISNSGGSTNYADSVKGRFTISRDNAKNTVYLQMNSLKPEDTAVYYCAADPYDLVWVEDYDYWGQGTQVTVSS` ), measured polyreactivity (PSR sort gate) is high polyreactivity

For reference, reported polyreactivity (PSR sort gate) for `QVQLVESGGGIVQAGGTLRLSCAASGSTFFYYVMGWYRQAPGKERELVAAITSSGGGTYYADSVKGRFTISRDNAKNTVYLQMKSLKPEDTAVYYCAKPVWWRDYRHGGRFGYWGQGTQVTVSS` stands at low polyreactivity

Notebook: `QVQLVESGGGLVQAGGSLRLSCAASGINFDGNVMGWYRPAPRKEREFFASISISGGSTSYADSVKGRFTISRDNAKNTVYLQMNSLKPEDTAVYYCNTDVCYGRVWRWRFHGDYWGQGTQVTVSS` , polyreactivity (PSR sort gate) read as low polyreactivity

Please fill in: polyreactivity (PSR sort gate) reported for `QVQIVESGGGLVQAGGSLRLSCAASGSTFPTYAMGRYRQAPGKERELVAAITSGSGTNTYYADSVKGRFTISRDNAKNTVYLQMNSLKPEDTAVYYCAKSFRKKYGWGQGTQVTVSS` = high polyreactivity

Entry under test: `QVQLVESGGGLVQAGGSLRLSWAASGRIFVLNAMGSYRQAPGKERELVAAISTGASTNYADSVKGRFTISRDNAKNTVYLKMNSLTPEATAVYYCAAAPGSSGARTSYILAYDYWGLGTQVTVSS` . Its polyreactivity (PSR sort gate) was low polyreactivity

What the record says about `QDQLVESGVGLVQAGGSLRLSCAASGRILGRNAMGWYRQAPGKERELVAAISSGVSTNYADSVKGRFTISRANAKNTVYLQMNSLKPEDTAVYYWGQGTQVTVSS` : polyreactivity (PSR sort gate) is low polyreactivity

The sequence listed as `QVQLVESGGGLVQAGGSLRLTCAASGIIFKQNVKGWYRKAPGKESELVAAITSRDGTTYYADSVKGRFTISRDNAKNTVYLQMNSLKPEDTAVYYCATLFKSGSYKYGYWGQGTQVTVSS` shows polyreactivity (PSR sort gate) equal to high polyreactivity

Recorded result, `QLQLVESGGGLVQAGGSLRLSCAASGSILGSYAMGWYRQAPGKERELVAAITRRGSSTYYADSVKGRFTISRDNAKNTVYLQMNSLKPEDTAVYYCAVYRRWYSGLYDYWGQGTQVTVSS` , polyreactivity (PSR sort gate): high polyreactivity

Consider `QVQLVESGGGLVQAGGSLRLSCAASGSIFDDYAMGWYRQAPGKERELVAAIDYTGGSTYYADSVKGRFTISRDNAKNTVYLQMNSLIPEDTAVYYCAAEVRVYYYLGGGYSWGQGTQVTVSS` . Its measured polyreactivity (PSR sort gate) is low polyreactivity

get_value(item= `QVQLVESGGGLVQAGGSLRLSCAASGRTFSVYAMGWYRQAPGKERELVAGITSGGSTNYADSVKGRFTISRDNAKNTVYLQMNSLKPEDTAVYYCAAEDDSSTPEFDYWGQGTQVTVSS` , readout=polyreactivity (PSR sort gate)) returns low polyreactivity

GET /value?item= `QVQLVESGVGLVQAGGSLRLSCAASGSTFVWYAMGWYRQAPGKERELVAVIDWSGGSTSYADSVKGRFTISRDNAKNTVSFQMNSLKPEDTAVYYCAAQQGVISRGNYWGQGTQVTVSS` &field=polyreactivity (PSR sort gate) returns low polyreactivity

sequence `QVQLVESGGGLVQAGGSLRLSCAASGLIFKRYAMGWYRQAPGKERELVAAISSGTRTYYADSVKGRFTISRDNAKNTVYLQMNSLKPEDTAVYYCAARLDYWGQGTQVTVSS` , polyreactivity (PSR sort gate) observed: high polyreactivity
